Entries and their measured GI50 follow.
System: A498 renal
assay name: NCI tumour cell line growth inhibition, 48 h

compound	endpoint	result
Cc1nn(-c2ccc([N+](=O)[O-])cc2)c2ncnc(N/N=C/c3ccccc3O)c12	GI50	2920 nM

Task: Retrieve GI50 measured for N#Cc1nc2c(S(=O)(=O)c3ccc(Cl)cc3)c(N)n(CCCN3CCOCC3)c2nc1C#N and print it.
Result: 2600 nM

Task: Retrieve GI50 measured for Nc1c(C(=O)c2cccc(C#CCO)c2)cnn1-c1ccc(F)cc1 and print it.
Result: > 18500 nM

Task: Retrieve GI50 measured for CC1=C(CCC(C)NCc2ccc(OCCCN3CCCCC3)cc2)C(C)(C)CCC1 (stereo not given) and print it.
Result: 1430 nM

Task: Retrieve GI50 measured for COC(=O)Nc1nc2ccc(Oc3cccc(NC(=O)Nc4cc(C(F)(F)F)ccc4F)c3)cc2[nH]1 and print it.
Result: 9460 nM

---

Tested on: NCI-H522 lung
assay name: NCI tumour cell line growth inhibition, 48 h
Entries and their measured TGI follow.

Examples with their reported TGI follow.
COC(=N)c1c(N)[n+]([O-])c2ccc(F)cc2[n+]1[O-] > 100 µM
c1ccc2[nH]c(-c3cc(-c4ccc5c(c4)OCO5)n[nH]3)nc2c1 10.3 µM
Nc1c(C(=O)c2cccc(-c3cccnc3)c2)cnn1-c1ccc(F)cc1F > 15 µM
O=c1c(O)c(-c2ccc(O)c(O)c2)oc2cc(O)cc(O)c12 > 100 µM

Task: Retrieve TGI measured for OCCn1cnc2c(SCc3ccccc3)ncnc21 and print it.
Result: > 100 µM

Task: Retrieve TGI measured for O=C(OCCNC(=O)N1CC1)OCCNC(=O)N1CC1 and print it.
Result: > 10 µM

---

System: OVCAR-3 ovarian
assay name: NCI tumour cell line growth inhibition, 48 h
Entries and their measured GI50 follow.

compound	GI50
C[CH2][Sn]([CH2]C)([O]C(=O)c1ccccc1F)[O][Sn]([CH2]C)([CH2]C)[O]C(=O)c1ccccc1F	> 42 µM
Cc1cnc(CNC(=O)c2c(=O)c3ccc(N4CCCN(C)CC4)nc3n3c2sc2ccccc23)cn1	7.2 µM
COC(=O)c1cc2ccccc2c2c3c(ccc12)OCO3	68.7 µM
Cn1cc(-c2csc(-c3cn(CCCN4CCCCC4)c4ccccc34)n2)c2cccnc21	1.7 µM
CC(=O)[O][Sn]([CH2]c1ccccc1)([CH2]c1ccccc1)[CH2]c1ccccc1	> 6.14 µM

Task: Retrieve GI50 measured for Cc1ccc(C(=O)NC2CCC2)cc1-c1ccc(C(=O)NCC2CC2)cc1 and print it.
Result: > 25 µM

---

System: PC-3 prostate
assay name: NCI tumour cell line growth inhibition, 48 h
Entries and their measured TGI follow.

molecule	result
CC(=O)OC(Cc1c(O)c2c(C)cccc2oc1=O)C(C)(C)O (stereo not given)	> 100 µM

Query molecule follows.
Task: Retrieve TGI measured for Nc1c(C(=O)c2cccc(C#CCO)c2)cnn1-c1ccc(F)cc1 and print it.
Result: > 25 µM

---

System: T-47D breast
assay name: NCI tumour cell line growth inhibition, 48 h
Entries and their measured GI50 follow.

Examples with their reported GI50 follow.
molecule	assay system	result
CC(C)CCNCC(O)Cn1c2ccccc2c2ccccc21 (stereo not drawn)	T-47D breast	3.99 µM
COc1ccc(N(/C=C/C(=O)C(F)(F)F)CC(=O)c2ccc(F)cc2)cc1	T-47D breast	32.1 µM

Task: Retrieve GI50 measured for O=C(Nc1ccc(Oc2cccc(F)c2)c(Cl)c1)c1cnccn1 and print it.
Result: 1.33 µM

---

Tested on: SF-295 CNS
assay name: NCI tumour cell line growth inhibition, 48 h
endpoint: log10(TGI) (log10 of the value in µM)
Note: values are log10 of TGI expressed in µM.

compound	log10(TGI)
C=C1C[C@H](O)[C@H](Br)C(C)(C)C12CCC(C)(Cl)C(Br)C2 (some centres not stated)	0.91

Task: Retrieve log10(TGI) measured for COc1cc(OC)c(C(=O)/C=C/c2cccc(C#N)c2)c(OC)c1 and print it.
Result: 0.74

Task: Retrieve log10(TGI) measured for CN(C)Cc1cc(N=Nc2ccc(Cl)cc2)cc(CN(C)C)c1O and print it.
Result: 1.39

Task: Retrieve log10(TGI) measured for CC(C)CCNCC(O)Cn1c2ccccc2c2ccccc21 (configuration not stated) and print it.
Result: 1.60

Task: Retrieve log10(TGI) measured for O=S(=O)(/C=C/CS(=O)(=O)c1ccccc1)c1ccccc1 and print it.
Result: 1.97

Task: Retrieve log10(TGI) measured for COc1ccc(C(=O)/C=C/c2cccc(Nc3ccnc4cc(Cl)ccc34)c2)cc1 and print it.
Result: 1.21

Task: Retrieve log10(TGI) measured for O=C(c1ccc(Cl)cc1)N(C(=S)OCCOc1ccccc1)c1ccccc1 and print it.
Result: 1.97

Task: Retrieve log10(TGI) measured for CC(C)NC(=O)OCc1c2c(n(C)c1COC(=O)NC(C)C)-c1ccccc1CC2 and print it.
Result: 1.48

Task: Retrieve log10(TGI) measured for COc1ccc(/C=C(\C(=O)NCc2cccnc2)S(=O)(=O)c2ccccc2)cc1OC and print it.
Result: 0.96

---

Entries and their measured TGI follow.
Tested on: HCC-2998 colon
assay name: NCI tumour cell line growth inhibition, 48 h

Task: Fetch value of TGI on HCC-2998 colon for Cc1nc2sccn2c1/C=C1/C(=O)Nc2cccc(Cl)c21 .
Result: > 100 µM

Task: Fetch value of TGI on HCC-2998 colon for O=C(O)C(CS)NCc1c2ccccc2nc2ccccc12 (stereo not given) .
Result: > 100 µM

Task: Fetch value of TGI on HCC-2998 colon for CC1C(C#N)(C#N)C(C#N)=C(N)C1(Cl)[N+](=O)[O-] (stereo not given) .
Result: 31.8 µM

Task: Fetch value of TGI on HCC-2998 colon for Cc1ccc(-c2csc(NC(=O)N3CCN(c4cc5c(cc4F)c(=O)c(C(=O)O)cn5C4CC4)CC3)n2)cc1 .
Result: > 100 µM

Task: Fetch value of TGI on HCC-2998 colon for CN(C)C(=O)c1ccc([N+](=O)[O-])cc1 .
Result: > 100 µM

Task: Fetch value of TGI on HCC-2998 colon for COc1cccc(C2c3cc4c(cc3OC(Nc3ccccc3)C2C)OCO4)c1OC (stereo not given) .
Result: > 100 µM

Task: Fetch value of TGI on HCC-2998 colon for CSc1nc2c(c(=O)[nH]1)N=C(c1ccccc1)CC(c1ccccc1)N2 (stereo not given) .
Result: > 100 µM

Task: Fetch value of TGI on HCC-2998 colon for COC(=N)c1c(N)[n+]([O-])c2ccc(F)cc2[n+]1[O-] .
Result: > 100 µM

Task: Fetch value of TGI on HCC-2998 colon for COc1cc2c(c(OC)c1OC)-c1ccc(SC)cc1C(O)CC2 (stereo not given) .
Result: 18.3 µM

Task: Fetch value of TGI on HCC-2998 colon for COc1ccc(/C=C(\C(=O)NCc2cccnc2)S(=O)(=O)c2ccccc2)cc1OC .
Result: 15.1 µM

Task: Fetch value of TGI on HCC-2998 colon for O=C(Nc1ccc(Cl)cc1)c1cc(S(=O)(=O)Nc2nnc3c(Cl)cc(C(F)(F)F)cn23)c(S)cc1Cl .
Result: > 100 µM

Task: Fetch value of TGI on HCC-2998 colon for N#Cc1c(O)c(/C=N/c2ncccn2)c(=O)n2c1[nH]c1ccccc12 .
Result: > 100 µM

Task: Fetch value of TGI on HCC-2998 colon for CNC1(C(=O)O)CC1 .
Result: > 100 µM

Task: Fetch value of TGI on HCC-2998 colon for CCO/C=N/C1=C(C#N)SC2=N/C(=C\c3ccccc3)C(=O)N21 .
Result: > 100 µM

---

Entries and their measured GI50 follow.
System: 786-0 renal
assay name: NCI tumour cell line growth inhibition, 48 h

compound	GI50
C=C1CC[C@@H]2[C@](C)(COC(C)=O)[C@H](OC(C)=O)CC[C@@]2(C)[C@@H]1CC(Nc1ccc(S(=O)(=O)Nc2ccc(Cl)nn2)cc1)C1=CCOC1=O (some centres undefined)	1.69 µM
NCCN.O=C([O-])CN1CCOCC1.[OH-].[Pt+4]	> 100 µM
Nc1c(C(=O)c2cccc(C#CCO)c2)cnn1-c1ccc(F)cc1	> 25 µM
COc1ccc(N(/C=C/C(=O)C(F)(F)F)CC(=O)c2ccc(F)cc2)cc1	21.1 µM
COc1ccccc1CNCCCN1C(=O)c2ccc3c4c(ccc(c24)C1=O)C(=O)N(CCCN)C3=O	1.47 µM
O=C1c2ccc3c4c(ccc(c24)C(=O)N1CCCNCc1ccccc1Cl)C(=O)N(CCCNCc1ccccc1Cl)C3=O	0.61 µM
[O-]c1ccccc1/C=N/C(/N=C/c1ccccc1[O-])c1ccccc1O.[O-]c1ccccc1/C=N/C(/N=C/c1ccccc1[O-])c1ccccc1O.[Zr+4]	41.6 µM
c1ccc2[nH]c(-c3cc(-c4ccc5c(c4)OCO5)n[nH]3)nc2c1	4.58 µM
C[CH2][Sn]([CH2]C)([O]C(=O)c1ccccc1F)[O][Sn]([CH2]C)([CH2]C)[O]C(=O)c1ccccc1F	25.2 µM
Cc1[nH]c(=O)nc(Nc2ccc(Cl)cc2)c1C(=O)N1CCN(CCO)CC1	50.7 µM

Task: Retrieve GI50 measured for Cc1cn2c(/C=C3/C(=O)Nc4ccc(O)cc43)c(C)nc2s1 and print it.
Result: 4.95 µM

Task: Retrieve GI50 measured for Nc1ccccc1C#C/C=C\C#Cc1cccc(O)c1 and print it.
Result: 3.89 µM

Task: Retrieve GI50 measured for O=[N+]([O-])c1ccc(N=Nc2ccc(O)c3ccccc23)cc1 and print it.
Result: 8.59 µM

Task: Retrieve GI50 measured for COc1ccc(/C=C(\C(=O)NCc2cccnc2)S(=O)(=O)c2ccccc2)cc1OC and print it.
Result: 2.86 µM

Task: Retrieve GI50 measured for COc1cc(/C=C/C(=O)c2ccc(F)cc2)ccc1OCCCN1CCN(CC(=O)Nc2ccc(Cl)cc2C(=O)c2ccccc2Cl)CC1 and print it.
Result: 3.86 µM

Task: Retrieve GI50 measured for CC[C@H](CO)Nc1nc(NCc2ccccc2)c2ncn(C(C)C)c2n1 and print it.
Result: 31.9 µM

Task: Retrieve GI50 measured for O1[As]2O[As]3O[As]1O[As](O2)O3 and print it.
Result: 0.528 µM

Task: Retrieve GI50 measured for CCOC(=O)c1cc2c(n1Cc1cc(OC)c(OC)c(OC)c1)-c1oncc1CCC2 and print it.
Result: 0.583 µM

Task: Retrieve GI50 measured for CC(C)(C)c1[nH]nc2c1C(c1cc3ccccc3[nH]c1=O)Nc1cc(C(=O)OCc3ccccc3)ccc1N2 (centres undefined) and print it.
Result: 3.41 µM
